- method description: Solubility test in bio-relevant media (SGF, FeSSIF, FaSSIF), HPLC of filtrate, XRPD of filter cake
- Format: physicochemical
- condition notes: FeSSIF, 37 °C, pH 4.95, fessif, thermodynamic from solid, FeSSIF, 24 h, pH 4.95 (24 h), read-out: Solubility (μg/mL) 24 h

[
  {
    "compound": "O=C(O)c1ccc2nc(Cc3ccc(-c4cccc(OCc5ccc(Cl)cc5F)n4)cc3F)n(C[C@@H]3CCO3)c2c1 [Free Acid Form I]",
    "solubility at 24 h (µg/mL)": 11
  }
]

* * *

- method description: Solubility test in bio-relevant media (SGF, FeSSIF, FaSSIF), HPLC of filtrate, XRPD of filter cake
- Type: physicochemical
- condition notes: FaSSIF, 37 °C, pH 6.5, fassif, thermodynamic from solid, FaSSIF, 0.5 h, pH 6.50 (0 h), read-out: Solubility (μg/mL) 0.5 h

[
  {
    "molecule": "O=C(O)c1ccc2nc(Cc3ccc(-c4cccc(OCc5ccc(Cl)cc5F)n4)cc3F)n(C[C@@H]3CCO3)c2c1 [Free Acid Form I]",
    "solubility at 0.5 h": "~5 µg/mL"
  }
]
